# maps each entry to its pIC50
- Test system: differentiated SH-SY5Y cells
- test-description: Cell proliferation (cytotoxicity) analysis with xCELLigence, SH-SY5Y
- Assay type: cell-based, human
- experimental-context: Homo sapiens, SH-SY5Y, 48 h; from CI values at 48th hour, 1, 10 and 100 μM tested; read-out: IC50 Values 48h SH-SY5Y
The read-out pIC50 is expressed as -log10 of concentration in moles per litre.

Quick note, pIC50 for "CO[C@H]1/C=C/O[C@@]2(C)Oc3c(C)c(O)c4c(O)c(c(/C=N/N5CCN(C)CC5)c(O)c4c3C2=O)NC(=O)/C(C)=C\C=C\[C@H](C)[C@H](O)[C@@H](C)[C@@H](O)[C@@H](C)[C@H](OC(C)=O)[C@@H]1C" landed at 4.19

The measured pIC50 associated with "CCN(CC)Cc1ccc2cc(COC(=O)Nc3ccc(C(=O)NO)cc3)ccc2c1" reads 5.85

###

- System: differentiated SH-SY5Y cells
- test-description: Cell proliferation (cytotoxicity) analysis with xCELLigence, SH-SY5Y
- Assay type: cell-based, human
- experimental-context: from CI values at 24th hour, 1, 10 and 100 μM tested; read-out: IC50 Values 24h SH-SY5Y
quantity-name: pIC50
pIC50 here: minus log base 10 of the concentration, concentration in moles per litre.

compound	system	readout-number
CC(/C=C/C(=O)NO)=C\[C@@H](C)C(=O)c1ccc(N(C)C)cc1	differentiated SH-SY5Y cells	6.22

Next up:
Query O=C(O)C(Cc1c[nH]c2ccccc12)N1C(=O)c2ccccc2C1=O (centres unmarked) yields pIC50 of 5.83

###

- Tested on: HMC3 microglia cells
- test-description: Cell proliferation (cytotoxicity) analysis with xCELLigence, HMC3
- Assay type: cell-based, human
- experimental-context: Homo sapiens, HMC3, 48 h; from CI values at 48th hour, 1, 10 and 100 μM tested; read-out: IC50 Values 48h HMC3
quantity-name: pIC50
Kindly note that pIC50 refers to -log10 of the concentration in mol/L and answer with the value alone.

smiles-data	system	pIC50
CO[C@H]1/C=C/O[C@@]2(C)Oc3c(C)c(O)c4c(O)c(c(/C=N/N5CCN(C)CC5)c(O)c4c3C2=O)NC(=O)/C(C)=C\C=C\[C@H](C)[C@H](O)[C@@H](C)[C@@H](O)[C@@H](C)[C@H](OC(C)=O)[C@@H]1C	HMC3 microglia cells	4.51

Now look at this one.
Recorded result, "CCN(CC)Cc1ccc2cc(COC(=O)Nc3ccc(C(=O)NO)cc3)ccc2c1" , pIC50: 6.27

###

- System: HMC3 microglia cells
- test-description: Cell proliferation (cytotoxicity) analysis with xCELLigence, HMC3
- Assay type: cell-based, human
- experimental-context: 100 μM, 48 hours
quantity-name: Reduction of HMC3 cell viability compared to the control group (%)
Your answer is read as %, so omit the unit and give the number.

As a guide, the following entries are already answered.
compound	readout-number
CO[C@H]1/C=C/O[C@@]2(C)Oc3c(C)c(O)c4c(O)c(c(/C=N/N5CCN(C)CC5)c(O)c4c3C2=O)NC(=O)/C(C)=C\C=C\[C@H](C)[C@H](O)[C@@H](C)[C@@H](O)[C@@H](C)[C@H](OC(C)=O)[C@@H]1C [Rifampin, rifampin]	28.72
CC(/C=C/C(=O)NO)=C\[C@@H](C)C(=O)c1ccc(N(C)C)cc1 [TSA, Trichostatin A]	51.2
O=C(O)C(Cc1c[nH]c2ccccc12)N1C(=O)c2ccccc2C1=O (stereo not shown) [RG108]	57.56

Next, consider the following compound.
Sure, the documented Reduction of HMC3 cell viability compared to the control group for CCN(CC)Cc1ccc2cc(COC(=O)Nc3ccc(C(=O)NO)cc3)ccc2c1 [Givinostat, givinostat] is 99.29

###

- Tested on: HMC3 microglia cells
- test-description: Cell proliferation (cytotoxicity) analysis with xCELLigence, HMC3
- Format: cell-based, human
- experimental-context: 10 μM, 24 hours
Here the recorded Reduction of HMC3 cell viability compared to the control group is given for each entry.
Kindly answer with a numeric value in %, unit omitted.

Tested on HMC3 microglia cells: "CCN(CC)Cc1ccc2cc(COC(=O)Nc3ccc(C(=O)NO)cc3)ccc2c1" . Observed Reduction of HMC3 cell viability compared to the control group: 58.19

Known value: HMC3 microglia cells Reduction of HMC3 cell viability compared to the control group of the molecule "CO[C@H]1/C=C/O[C@@]2(C)Oc3c(C)c(O)c4c(O)c(c(/C=N/N5CCN(C)CC5)c(O)c4c3C2=O)NC(=O)/C(C)=C\C=C\[C@H](C)[C@H](O)[C@@H](C)[C@@H](O)[C@@H](C)[C@H](OC(C)=O)[C@@H]1C" equals 12.72

Item "CC(/C=C/C(=O)NO)=C\[C@@H](C)C(=O)c1ccc(N(C)C)cc1" ; assay system HMC3 microglia cells; Reduction of HMC3 cell viability compared to the control group reported as 13.88

For the molecule O=C(O)C(Cc1c[nH]c2ccccc12)N1C(=O)c2ccccc2C1=O (stereo not shown) , the measured Reduction of HMC3 cell viability compared to the control group on HMC3 microglia cells was 3.12

###

Attribute: Reduction of HMC3 cell viability compared to the control group
- System: HMC3 microglia cells
- test-description: Cell proliferation (cytotoxicity) analysis with xCELLigence, HMC3
- Assay type: cell-based, human
- experimental-context: 100 μM, 24 hours
State just the number; it will be interpreted in %.

compound	result-unit	readout-number
CCN(CC)Cc1ccc2cc(COC(=O)Nc3ccc(C(=O)NO)cc3)ccc2c1	%	93.58

Looking up O=C(O)C(Cc1c[nH]c2ccccc12)N1C(=O)c2ccccc2C1=O (stereo not shown) , I found its Reduction of HMC3 cell viability compared to the control group recorded as 43.26

// sample "CC(/C=C/C(=O)NO)=C\[C@@H](C)C(=O)c1ccc(N(C)C)cc1" , its Reduction of HMC3 cell viability compared to the control group was 31.68

Reduction of HMC3 cell viability compared to the control group reading for "CO[C@H]1/C=C/O[C@@]2(C)Oc3c(C)c(O)c4c(O)c(c(/C=N/N5CCN(C)CC5)c(O)c4c3C2=O)NC(=O)/C(C)=C\C=C\[C@H](C)[C@H](O)[C@@H](C)[C@@H](O)[C@@H](C)[C@H](OC(C)=O)[C@@H]1C" : 15.74

###

- Tested on: SH-SY5Y cells
- test-description: Total ROS/Superoxide detection
- Format: cell-based, human
- experimental-context: cells treated (drugs 100 nM; LPS 100 ng/ml; CFS 1 μg/ml, with IFN-γ) before exposure to Aβ, without NAC
Here, each record is paired with measured Decrease of total ROS amount according to the Aβ group data.
# number only, unit % dropped from output

Record excerpt, results attached:
compound	system	readout-number
CCN(CC)Cc1ccc2cc(COC(=O)Nc3ccc(C(=O)NO)cc3)ccc2c1	SH-SY5Y cells	30.49
O=C(O)C(Cc1c[nH]c2ccccc12)N1C(=O)c2ccccc2C1=O (stereo not shown)	SH-SY5Y cells	52.61
CO[C@H]1/C=C/O[C@@]2(C)Oc3c(C)c(O)c4c(O)c(c(/C=N/N5CCN(C)CC5)c(O)c4c3C2=O)NC(=O)/C(C)=C\C=C\[C@H](C)[C@H](O)[C@@H](C)[C@@H](O)[C@@H](C)[C@H](OC(C)=O)[C@@H]1C	SH-SY5Y cells	43.14

Please look at the following compound next.
Record "CC(/C=C/C(=O)NO)=C\[C@@H](C)C(=O)c1ccc(N(C)C)cc1" , field Decrease of total ROS amount according to the Aβ group: 53.43

###

- System: differentiated SH-SY5Y cells
- test-description: Annexin V-PI staining of Aβ-induced cell death, flow cytometry
- Format: cell-based, human
- experimental-context: pretreatment (drugs 100 nM; LPS 100 ng/ml + IFN-γ; CFS 1 μg/ml + IFN-γ) + 5 μM Aβ 24 h; control 96.5%
quantity-name: Percentage of living cells (Live)

compound	result
CCN(CC)Cc1ccc2cc(COC(=O)Nc3ccc(C(=O)NO)cc3)ccc2c1 [Givinostat, givinostat]	84.3%

Reported differentiated SH-SY5Y cells Percentage of living cells (Live) for item CO[C@H]1/C=C/O[C@@]2(C)Oc3c(C)c(O)c4c(O)c(c(/C=N/N5CCN(C)CC5)c(O)c4c3C2=O)NC(=O)/C(C)=C\C=C\[C@H](C)[C@H](O)[C@@H](C)[C@@H](O)[C@@H](C)[C@H](OC(C)=O)[C@@H]1C [Rifampin, rifampin] was 86.2%

The reported differentiated SH-SY5Y cells Percentage of living cells (Live) of O=C(O)C(Cc1c[nH]c2ccccc12)N1C(=O)c2ccccc2C1=O (stereo not shown) [RG108] is 89.1%

differentiated SH-SY5Y cells data for CC(/C=C/C(=O)NO)=C\[C@@H](C)C(=O)c1ccc(N(C)C)cc1 [TSA, Trichostatin A] ; its Percentage of living cells (Live): 88.6%
